B1: Twister Ribozyme (parent)
chain: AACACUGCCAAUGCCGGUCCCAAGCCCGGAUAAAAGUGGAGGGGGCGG

# Variants of: B1
# Protocol: self-cleavage, relative activity (ratio to wild type); higher = more cleavage; co-transcriptional
Kind request: treat 0.7 as inclusive, so self-cleavage at 0.7 or higher is Y, anything lower is N.

Previously resolved entries follow.
C27U: Y
G29C U37A: N
C9A G38U: N
C26G G36A: N
G17A A30C: N

Check if self-cleavage >= 0.7 (inclusive). Item: C25U G29U Y

Check if self-cleavage >= 0.7 (inclusive). Item: U31C C46A Y

Check if self-cleavage >= 0.7 (inclusive). Item: G7A G24A N

Check if self-cleavage >= 0.7 (inclusive). Item: G7U C46U N

Check if self-cleavage >= 0.7 (inclusive). Item: C15G A35C N
